Listing: inhibition at 10 µM of selected compounds
# system: recombinant human ROCK2 (amino acids 1-530, aminoterminal 6×His tag) (Homo sapiens, UniProt O75116)
# Construct: recombinant human ROCK2 (amino acids 1-530, aminoterminal 6×His tag); 6xHis (N)
# Sequence (O75116 1-530): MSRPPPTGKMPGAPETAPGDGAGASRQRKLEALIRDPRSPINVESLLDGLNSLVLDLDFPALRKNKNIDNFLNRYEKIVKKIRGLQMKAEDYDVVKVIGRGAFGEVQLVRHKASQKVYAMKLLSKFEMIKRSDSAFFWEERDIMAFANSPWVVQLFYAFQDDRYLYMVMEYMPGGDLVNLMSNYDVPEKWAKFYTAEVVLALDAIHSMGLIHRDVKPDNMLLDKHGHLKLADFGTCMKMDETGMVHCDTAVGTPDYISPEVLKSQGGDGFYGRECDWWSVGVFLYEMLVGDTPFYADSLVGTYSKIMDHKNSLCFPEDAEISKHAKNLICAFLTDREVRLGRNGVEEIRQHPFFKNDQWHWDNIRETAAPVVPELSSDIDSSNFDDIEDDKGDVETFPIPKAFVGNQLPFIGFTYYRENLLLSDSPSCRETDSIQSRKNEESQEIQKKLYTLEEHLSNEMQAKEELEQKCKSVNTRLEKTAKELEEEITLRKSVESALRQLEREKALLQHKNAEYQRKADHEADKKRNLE
# testDescription: Determination of ROCK kinase activity, IMAP assay, ROCK2 human
# Assay type: biochemical
# protocolConditions: % inhibition of the protein kinase ROCK2 at a concentration of 10 μM
Hi! Could you send only the number? It should be in %, unit omitted.

Reference set (5 entries):
{"compound": "CC(NC(=O)c1ccc2cnccc2n1)c1ccccc1 (stereo not drawn)", "inhibition at 10 µM, %": 81}
{"compound": "C[C@H](NC(=O)c1ccc2cnccc2n1)c1ccccc1", "inhibition at 10 µM, %": 37}
{"compound": "NC(=O)C(Cc1ccc(Cl)cc1)NC(=O)c1ccc2cnccc2n1 (stereo not drawn)", "inhibition at 10 µM, %": 65}
{"compound": "C[C@@H](NC(=O)c1ccc2cnccc2n1)c1ccccc1", "inhibition at 10 µM, %": 88}
{"compound": "NC(=O)C(Cc1ccccc1)NC(=O)c1ccc2cnccc2n1 (stereo not drawn)", "inhibition at 10 µM, %": 62}

Now let's try a different one.
What does the data say about its inhibition at 10 µM? Entry: `O=C(NCc1cccc(Br)c1)c1ccc2cnccc2n1` 87

meta.source: patent US20080207677A1
